# ASSAY COMMENT: Toxicity liver stage against HepG2, at 10uM
# Type: cell-based
# Design: test concentration 10 uM, cell line HepG2-A16-CD81EGFP
# CONDITION NOTES: human, HepG2-A16-CD81EGFP cells; read-out: INHIBITION
Collected cytotoxicity at 10 µM values appear next to each entry.
Numeric only. Scale: %

Record excerpt, results attached:
CN(Cc1ccc(C#N)cc1)C(=O)c1ccn(C)c(=O)c1 = -2.81
O=C(Cn1nnn(-c2cccs2)c1=O)N(CC1CCOC1)C1CC1 (stereo unspecified) = -39.9
Cc1cnn(C2CCCN(C(=O)c3cn(-c4ccccc4)nn3)C2)c1 (stereo unspecified) = -22.1
CC(C)c1cc(NC(=O)CN2CCn3c(nnc3C3CC3)C2)on1 = -14.1
Cn1cc(CN2CCc3c(CNC(=O)C4CC4)cncc3C2)cn1 = -5.43

Then there is this compound:
Any idea what its cytotoxicity at 10 µM is? The compound is `CN1CCC/C1=N\S(=O)(=O)c1ccc(NC(=O)c2ccc(Cl)s2)cc1`
1.55

====

# ASSAY COMMENT: Toxicity liver stage against HepG2, at 10uM
# Format: cell-based
# Set-up: test concentration 10 uM, cell line HepG2-A16-CD81EGFP
# CONDITION NOTES: human, HepG2-A16-CD81EGFP cells; read-out: INHIBITION
QUANTITY: cytotoxicity at 10 µM (%)
Please respond with the number in % and leave the unit unwritten.

Recorded results for 5 molecules are shown here.
O=C(O)c1ccnc(SCC(F)(F)F)c1 = -17.6
O=C(NCCn1nc2ccccn2c1=O)c1cc(C2CC2)[nH]n1 = 0.763
COC(=O)c1ccc(C2SCC(=O)Nc3ccsc32)cc1 (configuration not stated) = -6.79
Cc1cccc(N2CC3(CCN(c4nncs4)C3)CC2=O)c1 (configuration not stated) = 0.179
CNC(=O)C1Cc2ccccc2CN1CCc1cccs1 (configuration not stated) = -0.837

Look at this molecule and give its reported cytotoxicity at 10 µM. `Cc1cccc(CN2C(=O)C[C@@H]3[C@@H]2CCN3Cc2ccsc2)n1`
-6.63

For `CCn1cnnc1CNc1nc(C)nc2scc(CC(C)C)c12` , what is its reported cytotoxicity at 10 µM?
-3.17

GET /values?readout=cytotoxicity at 10 µM&item= `COc1ccccc1CN1C[C@@H]2CN(Cc3cccnc3)CCO[C@@H]2C1`
12.3

Please look up its cytotoxicity at 10 µM: Cc1ccccc1CN(C)C(=O)CN1CCOC(Cn2cncn2)C1 (configuration not stated)
-1.07

Which value of cytotoxicity at 10 µM has been reported for CC(C)Oc1ncccc1CNC(=O)NC(C)c1cccs1 (configuration not stated) in the records?
-2.3

For `CC(C)[C@H]1CN(Cc2c[nH]cn2)C[C@@H]1NC(=O)CC1CCC1` , what is its reported cytotoxicity at 10 µM?
-39

Which cytotoxicity at 10 µM value belongs to `CCn1cnnc1CNC(=O)c1cc(Cl)c(I)cc1OC` ?
-14.4

Please look up its cytotoxicity at 10 µM: `Cc1cc(C(F)(F)F)nn1CCCNC(=O)C1CCCC1`
-4.93

====

# ASSAY COMMENT: Toxicity liver stage against HepG2, at 10uM
# Format: cell-based
# Set-up: test concentration 10 uM, cell line HepG2-A16-CD81EGFP
# CONDITION NOTES: human, HepG2-A16-CD81EGFP cells; read-out: INHIBITION
QUANTITY: cytotoxicity at 10 µM (%)
Give just the number in %; leave the unit off.

Please review the entries below; each comes with its answer.
CCS(=O)(=O)CC(=O)Nc1ccccc1N1CCc2ccccc21 = 9.26
Cn1cnc2c1CCN(Cc1csc(C3CCCC3)n1)C2 = -12.3
CCc1[nH]c2ccc(CNc3cncc(C(=O)N(C)C)n3)cc2c1C = 7.59
Cc1cnn(CC2CN(c3cnc4ccccc4n3)CCO2)c1 (stereo not given) = 2.02
O=C(Cn1cc(C(=O)O)ccc1=O)NCc1ccc(F)cc1Cl = -0.581

# lookup: cytotoxicity at 10 µM of CN(C)C(=O)COC1COC2(CCN(c3cccc(F)c3)CC2)C1 (stereo not given)
-66

I have this compound here, COc1ccc(-c2cnc(CN3CCCC3CO)o2)cc1 (stereo not given) , and I need its recorded cytotoxicity at 10 µM.
9.38

I would be grateful if you could share the reported cytotoxicity at 10 µM for `O=C(Cc1cccc2cccnc12)N1CCCN(c2cccnn2)CC1` .
-5.1

Given the entry `CNS(=O)(=O)c1cccc(C(=O)N(C)Cc2ccsc2)c1` , report its measured cytotoxicity at 10 µM.
4.04

Any idea what its cytotoxicity at 10 µM is? The compound is `O=C(COc1ccc(Cl)cc1)NCc1nncn1C1CC1`
7.67

Can you share its cytotoxicity at 10 µM? I mean this compound: `Cc1nccc(-c2cccc(NCC(=O)N3CCNC3=O)c2)n1`
1.9

Given the compound Cc1c(F)cccc1S(=O)(=O)N(C)CC(C)O (stereo not given) , what is its reported cytotoxicity at 10 µM?
4.98

Which cytotoxicity at 10 µM is reported for this compound? Cn1c(CN2CCOCC2)nnc1C1CCCN(C(=O)CCC2CC2)C1 (stereo not given)
6.72

Which cytotoxicity at 10 µM value is on record for Cc1ccc(N2CCC(C(O)c3cccs3)CC2)nn1 (stereo not given) ?
-49.1

Which measured cytotoxicity at 10 µM value corresponds to Cn1ccnc1CN1CCC2(CC(=O)N(c3cncnc3)C2)C1 (stereo not given) ?
-0.799

So what's the measured cytotoxicity at 10 µM for this one? Cc1nn(C)cc1CN1CCCC1c1cccc(Nc2nccs2)n1 (stereo not given)
4.25

Reported cytotoxicity at 10 µM, compound `Cn1ccc(C(=O)NCc2cccc(Cn3ccnc3)c2)cc1=O` : ____
8.42

Reported cytotoxicity at 10 µM, compound NC(=O)Cn1cc(NC(=O)N2CCCC(O)C2)cn1 (stereo not given) : ____
-10.1

Field request: cytotoxicity at 10 µM | item: CC(Sc1nnc(C2CC2)n1CC(N)=O)c1ccc(F)cc1F (stereo not given)
-1.7

# input compound: Cc1ccccc1C(NC(=O)Cn1cc(C2CC2)nn1)C1CC1 (stereo not given) ; wanted: its cytotoxicity at 10 µM
-1.03

What value of cytotoxicity at 10 µM has been recorded for this entry: COc1ccc(Cl)cc1C(=O)NC(CC(=O)O)c1cccs1 (stereo not given)
-6.16

Which measured cytotoxicity at 10 µM value corresponds to `Cc1cccc(=O)n1CCC(=O)N(C)Cc1cccc2ncccc12` ?
0.66

Look at this compound and give its reported cytotoxicity at 10 µM. COc1ccccc1OC1CN(C(=O)C(c2ccc(F)cc2)N(C)C)C1 (stereo not given)
1.42

Name the reported cytotoxicity at 10 µM value associated with the compound `O=C(NCCNc1ncccn1)c1ccc(Br)cc1`
-0.628

Consider the compound `O=C(NCc1nnc2n1CCC2)N(Cc1ccco1)C1CC1` and give its measured cytotoxicity at 10 µM.
-6.11
